biological target: GalNAc(b1-3)Gal; experiment: glycan array binding signal (z-score within array); higher = stronger binding; settings: glycan notation: IUPAC condensed, linker removed
This is one part of a sample in which the strongest signals are shown more often than they occur.
Give glycan array binding signal (z-score) for every item shown.
Numbers only.

CBM32-5 (Clostridium perfringens) (protein) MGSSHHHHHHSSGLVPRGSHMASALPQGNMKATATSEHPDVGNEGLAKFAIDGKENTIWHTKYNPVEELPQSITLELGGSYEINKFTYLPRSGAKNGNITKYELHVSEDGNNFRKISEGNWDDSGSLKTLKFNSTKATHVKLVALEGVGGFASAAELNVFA    4.11
FimA-N2 (Actinomyces oris) (protein) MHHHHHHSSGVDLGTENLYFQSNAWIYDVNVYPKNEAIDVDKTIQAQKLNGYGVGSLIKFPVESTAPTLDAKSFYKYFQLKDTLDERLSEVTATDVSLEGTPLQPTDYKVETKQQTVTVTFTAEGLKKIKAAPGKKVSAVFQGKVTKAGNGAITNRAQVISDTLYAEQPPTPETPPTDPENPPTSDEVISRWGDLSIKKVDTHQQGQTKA    2.41

Consider now this further binder.
Query: glycan array binding signal (z-score); subject: Epa3to1 (Candida glabrata) (protein) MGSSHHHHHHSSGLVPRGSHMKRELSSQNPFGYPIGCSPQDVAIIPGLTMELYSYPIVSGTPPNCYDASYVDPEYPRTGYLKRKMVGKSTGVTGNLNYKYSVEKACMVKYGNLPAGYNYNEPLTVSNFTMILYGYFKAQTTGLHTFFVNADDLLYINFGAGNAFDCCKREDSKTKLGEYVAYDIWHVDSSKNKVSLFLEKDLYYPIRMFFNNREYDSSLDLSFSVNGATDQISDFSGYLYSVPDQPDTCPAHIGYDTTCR
0.105

All figures here come from the supplement of paper PMC8728848.
